tested on: eosinophils; experiment: Eosinophil shape change assay with human plasma; format: cell-based; settings: Homo sapiens, Eosinophil, human plasma (50%), PGD2 100 nM activation, antagonistic activity
ENDPOINT_LABEL: IC50 (µM)

Below, 2 compounds whose answers are already recorded.
COc1cc(CC(=O)O)ccc1-c1ccc(F)c2c1CN(C(=O)CCCc1ccccc1)CC2 [Example 187]; 0.091
O=C(O)Cc1ccc(OC(F)F)c(-c2ccc(F)c3c2CN(C(=O)OCc2ccccc2)CC3)c1 [Example 412]; 0.047

(I) O=C(O)Cc1ccc(OCCF)c(-c2ccc(F)c3c2CN(C(=O)OCc2ccccc2)CC3)c1 [Example 422]
(II) CC(C)COc1ccc(CC(=O)O)cc1-c1ccc(F)c2c1CN(C(=O)OCc1ccccc1)CC2 [Example 198]
Between I and II , whose recorded IC50 is greater? Let me know the label of the one you choose.
II
